# TARGET: Protein translocase subunit SecA (Escherichia coli (strain K12)) (UniProt P10408)
# Sequence (P10408 whole entry): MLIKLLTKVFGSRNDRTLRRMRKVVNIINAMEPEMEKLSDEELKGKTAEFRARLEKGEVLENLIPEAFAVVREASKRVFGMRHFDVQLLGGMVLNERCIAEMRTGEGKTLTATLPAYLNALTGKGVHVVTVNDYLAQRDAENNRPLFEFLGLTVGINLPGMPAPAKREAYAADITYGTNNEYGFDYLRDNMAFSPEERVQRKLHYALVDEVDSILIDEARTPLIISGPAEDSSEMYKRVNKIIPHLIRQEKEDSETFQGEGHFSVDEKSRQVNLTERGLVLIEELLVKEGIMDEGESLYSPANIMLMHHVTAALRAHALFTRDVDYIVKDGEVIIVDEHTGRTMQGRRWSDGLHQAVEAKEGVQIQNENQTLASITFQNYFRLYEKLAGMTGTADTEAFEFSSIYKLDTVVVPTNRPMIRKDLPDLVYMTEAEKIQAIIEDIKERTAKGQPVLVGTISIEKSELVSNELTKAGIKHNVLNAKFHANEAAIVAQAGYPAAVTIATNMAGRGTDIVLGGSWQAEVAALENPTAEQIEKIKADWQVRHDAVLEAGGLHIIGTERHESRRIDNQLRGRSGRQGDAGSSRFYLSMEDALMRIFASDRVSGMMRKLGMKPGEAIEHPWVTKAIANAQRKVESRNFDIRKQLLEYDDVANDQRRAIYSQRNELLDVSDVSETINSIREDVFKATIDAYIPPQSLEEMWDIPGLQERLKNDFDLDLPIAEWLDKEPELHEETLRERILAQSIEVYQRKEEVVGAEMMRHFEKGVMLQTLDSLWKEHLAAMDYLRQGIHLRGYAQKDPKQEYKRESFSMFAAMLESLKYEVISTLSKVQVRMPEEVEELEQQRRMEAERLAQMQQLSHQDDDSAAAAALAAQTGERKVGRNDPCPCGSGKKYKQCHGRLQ
# PROTOCOL DESCRIPTION: Assay to Identify E. coli SecA ATPase Inhibitors
# Format: functional
# Design: scale not given: direction of the effect not stated beside the values
# SETUP CONDITIONS: 30 µM
Results with a measured potency or affinity are listed apart.
MEASURED ENDPOINT: Percent Effect (%)
I only need the number, in %, no unit after it.

| COMPOUND | NUMERIC READOUT |
| --- | --- |
| O=C1NCC2(CCCN(Cc3ccc(Cl)s3)C2)Oc2ccccc21 (stereo unspecified) | -1.75 |

Summary: `CNCC(=O)N1CC(c2cc(Nc3ncccn3)nc(C)n2)C1` , Protein translocase subunit SecA (Escherichia coli (strain K12)) (UniProt P10408), Percent Effect = 0.103

Entry `CCC(=O)NC1CCN(c2cccc(CC)c2)CC1` ; assay system Protein translocase subunit SecA (Escherichia coli (strain K12)) (UniProt P10408); Percent Effect recorded at -7.28

// compound Cc1cc(C2CCCN(CCCS(=O)(=O)c3ccccc3)C2)n[nH]1 (stereo unspecified) , assay Protein translocase subunit SecA (Escherichia coli (strain K12)) (UniProt P10408), Percent Effect value: -0.801

Hey, Protein translocase subunit SecA (Escherichia coli (strain K12)) (UniProt P10408) data for O=C(C1CCOC1)N1CC[C@@H](O)[C@@H]1Cc1ccccc1 (stereo partly specified) : Percent Effect came out at -4.39

For CC(c1cccc(S(N)(=O)=O)c1)N(C)CCOc1ccccc1 (stereo unspecified) on Protein translocase subunit SecA (Escherichia coli (strain K12)) (UniProt P10408), measured Percent Effect was -0.74

# value of Percent Effect, Protein translocase subunit SecA (Escherichia coli (strain K12)) (UniProt P10408), item `Cc1cc2c(=O)n3c(nc2s1)CCN(Cc1cnn(C)c1C)CC3` = -4.39

Assay Protein translocase subunit SecA (Escherichia coli (strain K12)) (UniProt P10408), sample CC(O)CN1CCN(C(=O)c2cn(-c3ccccc3Cl)nn2)CC1 (stereo unspecified) , Percent Effect read: -1.74

Form: item COc1ccc(CCC(=O)N2CCCC2Cn2cc(C)cn2)cc1F (stereo unspecified) ; test system Protein translocase subunit SecA (Escherichia coli (strain K12)) (UniProt P10408); Percent Effect: -2.77

The measured Percent Effect that Cc1nc(C)n(CC2CCCN2Cc2nc(N)c3ccccc3n2)n1 (stereo unspecified) showed for Protein translocase subunit SecA (Escherichia coli (strain K12)) (UniProt P10408) is -1.49

The measured Percent Effect that CC(C)(C)NC(=O)C1CSCN1S(=O)(=O)c1ccc(F)cc1 (stereo unspecified) showed for Protein translocase subunit SecA (Escherichia coli (strain K12)) (UniProt P10408) is -1.95
